Test Method Notes: qHTS assay to identify small molecule HDAC inhibitors - cell viability counter screen (AID 1259365); also: nearly all actives have a fitted effect of over 50% in size
Measurement Parameters: HCT-116 viability, CellTiter-Glo ATP luminescence, 2 h; series mostly up to 92.4 µM
Active and inactive are the calls of the source. Calls follow the shape of the dose curve; as a rule, active = well fitted cell-killing curve with a large enough effect in the repeat runs; inconclusive = weak or mixed curves, or effect the other way; inactive = flat fitted curve, though single readings scatter.
Your reply should match one of these outcome classes. True = active, False = inactive

Give the logged outcome of this assay for the following compound: CC(C)=CCOc1ccc(/C=C/C(=O)c2ccc(OCC=C(C)C)cc2OCC(=O)O)cc1
False

Give the logged outcome of this assay for the following compound: CC(C)(C)C(=O)OCOC(=O)[C@@H]1N2C(=O)[C@@H](NC(=O)[C@H](N)c3ccccc3)[C@H]2SC1(C)C
False

Give the logged outcome of this assay for the following compound: CCc1cc(Cc2cc(CC)c(N)c(CC)c2)cc(CC)c1N
False

Give the logged outcome of this assay for the following compound: COC(=O)c1cc(Cl)ccc1OC
False

Give the logged outcome of this assay for the following compound: COc1c(C)c2c(c(O)c1C/C=C(\C)CCC(=O)O)C(=O)OC2
False

Give the logged outcome of this assay for the following compound: c1cc(C(c2ccc(OCC3CO3)cc2)c2ccc(OCC3CO3)cc2)ccc1OCC1CO1 (configuration not stated)
False

Give the logged outcome of this assay for the following compound: C[C@]12CCC(=O)C=C1CC[C@@H]1[C@@H]2[C@@H](O)C[C@@]2(C)[C@H]1CC[C@]2(O)C(=O)COC(=O)CCC(=O)O
False

Give the logged outcome of this assay for the following compound: CCC(CN)=C(c1ccccc1)c1ccccc1
False

Give the logged outcome of this assay for the following compound: O=c1cccccc1O
False

Give the logged outcome of this assay for the following compound: Cc1cc(C2CCCCC2)n(O)c(=O)c1
False

Give the logged outcome of this assay for the following compound: O=C1C=CC(=O)N1c1ccc(Cc2ccc(N3C(=O)C=CC3=O)cc2)cc1
False

Give the logged outcome of this assay for the following compound: Cc1cc(CCN2CCN(c3nsc4ccccc34)CC2)cc2c1NC(=O)CC2(C)C
False

Give the logged outcome of this assay for the following compound: [Cl][Au]([Cl])[Cl]
False

Give the logged outcome of this assay for the following compound: CN1CCC(Nc2ncc3ncnc(Nc4ccc(F)c(Cl)c4)c3n2)CC1
False

Give the logged outcome of this assay for the following compound: CCCCCCCCOc1ccccc1C(=O)Nc1ccc(C(=O)OCC[N+](C)(CC)CC)cc1
False

Give the logged outcome of this assay for the following compound: CC(C)OC(=O)c1cc2c(OCC(O)CNC(C)(C)C)cccc2[nH]1 (configuration not stated)
False

Give the logged outcome of this assay for the following compound: C[n+]1ccn(Cc2ccccc2)c1
False

Give the logged outcome of this assay for the following compound: Oc1ccc2c(c1)-c1ccccc1C2
False

Give the logged outcome of this assay for the following compound: Nc1ccc2c3c(cccc13)-c1ccccc1-2
False

Give the logged outcome of this assay for the following compound: O=[N+]([O-])c1cc([N+](=O)[O-])c2ccc(S(=O)(=O)O)cc2c1O
False

Give the logged outcome of this assay for the following compound: COc1cc(-c2nc(NC(=O)c3cc4cc(C)cc(C)c4n3CC(=O)O)sc2CCC2CCCCC2)c(OC)cc1Cl
True

Give the logged outcome of this assay for the following compound: COc1ccc(-c2ccc3cc(C(=O)O)ccc3c2)cc1C12CC3CC(CC(C3)C1)C2
False

---

Test Method Notes: qHTS assay to identify small molecule antagonists of the glucocorticoid receptor (GR) signaling pathway - cell viability counter screen (AID 720693); also: nearly all actives have a fitted effect of over 55% in size; also: potency is read from the fitted curve at half-maximal effect
Measurement Parameters: GR-bla HeLa viability, CellTiter-Glo luminescence, 18 h, with 5 nM dexamethasone present; series mostly up to 58.5 µM
Records with an inconclusive call do not appear. Activity calls are given as the source filed them. Calls come from the whole dose curve; as a rule, active = well fitted cell-killing curve with a large enough effect in the repeat runs; inconclusive = weak or mixed curves, or effect the other way; inactive = no such curve, though single readings can be large or run the other way.
Outcome Measure: Potency

As a guide, the following entries are already answered.
Compound	Recorded Value
Cc1onc(-c2c(Cl)cccc2Cl)c1C(=O)N[C@@H]1C(=O)N2[C@@H]1SC(C)(C)[C@@H]2C(=O)O	inactive
C[C@@H]1C[C@H]2[C@@H]3CCC4=CC(=O)C=C[C@]4(C)[C@@]3(Cl)[C@@H](O)C[C@]2(C)[C@@]1(OC(=O)c1ccco1)C(=O)CCl	inactive
CSc1cnc(C)cn1	inactive
CCC1=C[C@@H]2CN(C1)Cc1c([nH]c3ccccc13)[C@@](C(=O)OC)(c1cc3c(cc1OC)N(C)[C@H]1[C@@](O)(C(=O)OC)[C@H](OC(C)=O)[C@]4(CC)C=CCN5CC[C@]31[C@@H]54)C2	inactive
Fc1ccc([C@@H]2CCNC[C@H]2COc2ccc3c(c2)OCO3)cc1	inactive
CCCCCCCCCCCCCCCC(=O)OC[C@H](O)[C@H]1OC(=O)C(O)=C1O	inactive
COC(=O)C1=C(C)NC(C)=C(C(=O)OCC(C)C)C1c1ccccc1[N+](=O)[O-] (centres undefined)	inactive
CCCCN1C(=O)[C@@H]([C@H](O)C2CCCCC2)NC(=O)C12CCN(Cc1ccc(Oc3ccc(C(=O)O)cc3)cc1)CC2	inactive
OCCCCCCCCCCCCBr	inactive
CC(C)C(C)(C)C(C)(C)C(C)(C)S	inactive

Item: CCCCCCCCCCCC[N+](C)(C)CCCCCCCCCCCC | Potency: 24.5 µM (active)

Item: CCOC(=O)O[C@]1(C(=O)OCCl)CC[C@H]2[C@@H]3CCC4=CC(=O)C=C[C@]4(C)[C@H]3[C@@H](O)C[C@@]21C | Potency: inactive

---

Test Method Notes: qHTS assay to identify small molecule agonists of the NFkB signaling pathway - cell viability counter screen (AID 1159515); also: nearly all actives have a fitted effect of over 55% in size; also: potency is read from the fitted curve at half-maximal effect
Measurement Parameters: NFkB-bla ME-180 viability, CellTiter-Glo luminescence, 5 h; series mostly up to 61 µM
Results filed as inconclusive are left out. Calls of active or inactive are those of the source. Calls come from the whole dose curve.
Outcome Measure: Potency

As a guide, the following entries are already answered.
Molecule	Potency
CCCC(=O)OC[C@@H](OC(=O)CCC)[C@@H](OC(=O)CCC)[C@H](Cn1c2nc(=O)[nH]c(=O)c-2nc2cc(C)c(C)cc21)OC(=O)CCC	inactive
CC(=O)S[C@@H]1CC2=CC(=O)CC[C@]2(C)[C@H]2CC[C@@]3(C)[C@@H](CC[C@@]34CCC(=O)O4)[C@H]12	inactive
Cc1cc(O)c(C(C)(C)C)cc1Sc1cc(C(C)(C)C)c(O)cc1C	17.3 µM (active)
CC(NN)c1ccccc1 (stereo not given)	inactive
Cc1cc(C2CCCCC2)n(O)c(=O)c1	5.35 µM (active)

Item: CCc1cc(SCc2sc(-c3ccc(C(F)(F)F)cc3)nc2CN2CCN(c3ccc(OC)cc3)CC2)ccc1OCC(=O)O | Potency: 43.6 µM (active)

Item: CCCCc1oc2ccc(NS(C)(=O)=O)cc2c1C(=O)c1ccc(OCCCN(CCCC)CCCC)cc1 | Potency: 26.8 µM (active)

Item: CCOC(=O)O[C@H](C)OC(=O)c1ccc2c(c1)cc(C(=O)NC1CCN(C(C)C)CC1)n2Cc1cc(-c2ccc(Cl)s2)on1 | Potency: 45.8 µM (active)

Item: Clc1ccc2n[nH]nc2c1 | Potency: inactive

Item: NNc1nc(-c2ccc([N+](=O)[O-])cc2)cs1 | Potency: inactive

Item: CCCCCCCCCCCCCCCCCC[N+](C)(C)C | Potency: 55.1 µM (active)

Item: N=C1C=CC(=C(c2ccc(N)cc2)c2ccc(N)cc2)C=C1 | Potency: inactive

Item: CCCCCCCCn1sc(Cl)c(Cl)c1=O | Potency: 9.77 µM (active)

Item: ON=C1CCCC1 | Potency: inactive

Item: CCCCC(CC)CN=C(N)NC(N)=NCCCCCCN=C(N)NC(N)=NCC(CC)CCCC (stereo not given) | Potency: 19 µM (active)

---

Test Method Notes: qHTS assay to identify small molecule antagonists of the estrogen related receptor (ERR) signaling pathway (AID 1224819; also: nearly all actives have a fitted effect of over 50% in size; also: potency is read from the fitted curve at half-maximal effect)
Measurement Parameters: ERR reporter cell line, luciferase inhibition; series mostly up to 46.1 µM
Records with an inconclusive call do not appear. The source made the active and inactive calls. Calls come from the whole dose curve; as a rule, active = well fitted inhibition curve with a large enough effect in the repeat runs; inconclusive = weak or mixed curves; inactive = no such curve, though single readings can be large or run the other way.
Outcome Measure: Potency

Molecule	Potency
CCCCC(CC)COC(=O)c1ccccc1C(=O)O (configuration not stated)	inactive
C[n+]1cc2c3c(ccc2c2ccc4cc5c(cc4c21)OCO5)OCO3	3.1 µM (active)
O=C1Cc2cc(CCN3CCN(c4nsc5ccccc45)CC3)c(Cl)cc2N1	20.3 µM (active)
Clc1ccc2nsnc2c1NC1=NCCN1	inactive
CC(=O)N1CCN(c2ccc(OC[C@H]3CO[C@](Cn4ccnc4)(c4ccc(Cl)cc4Cl)O3)cc2)CC1	9.08 µM (active)
Clc1ccccc1C(c1ccccc1)(c1ccccc1)n1ccnc1	12.8 µM (active)

Please turn your attention to the following entry.
Item: OCCN(CCO)c1nc(N2CCCCC2)c2nc(N(CCO)CCO)nc(N3CCCCC3)c2n1 | Potency: 11.9 µM (active)

---

Test Method Notes: A CellTox Green Cytotoxicity Assay to monitor cytotoxicity in HepG2 cells - 24 hour (AID 1224878); also: nearly all actives have a fitted effect of over 45% in size
Measurement Parameters: CellTox Green fluorescence; series mostly up to 76.8 µM
Records with an inconclusive call do not appear. Calls of active or inactive are those of the source. The call rests on the fitted dose curve; in most records, active means well fitted activation curve with a large enough effect in the repeat runs; inconclusive means weak or mixed curves; inactive means flat fitted curve, though single readings scatter.
Your reply should match one of these outcome classes. class 1 for active, class 0 for inactive

Give the logged outcome of this assay for the following compound: CCCCCCCCn1sc(Cl)c(Cl)c1=O
class 1

Give the logged outcome of this assay for the following compound: CC1=C(C(=O)OC(C)C)C(c2cccc([N+](=O)[O-])c2)C(C(=O)OC2CN(C(c3ccccc3)c3ccccc3)C2)=C(N)N1 (stereo unspecified)
class 1

Give the logged outcome of this assay for the following compound: O=C1C=CC(=O)N1c1ccc(Cc2ccc(N3C(=O)C=CC3=O)cc2)cc1
class 1

Give the logged outcome of this assay for the following compound: C/C(=C(/OCCOc1ccc(Cl)cc1)c1ccc(Cl)cc1Cl)n1ccnc1
class 0

Give the logged outcome of this assay for the following compound: CCN(CCC#N)c1ccc(N=Nc2c(Cl)cc([N+](=O)[O-])cc2Cl)cc1
class 0

Give the logged outcome of this assay for the following compound: CCCCCCCCCCC=O
class 0
